# System name: T1, plasma-derived human activated protein C (APC) (UniProt P04070 43-461)
# T1 chain: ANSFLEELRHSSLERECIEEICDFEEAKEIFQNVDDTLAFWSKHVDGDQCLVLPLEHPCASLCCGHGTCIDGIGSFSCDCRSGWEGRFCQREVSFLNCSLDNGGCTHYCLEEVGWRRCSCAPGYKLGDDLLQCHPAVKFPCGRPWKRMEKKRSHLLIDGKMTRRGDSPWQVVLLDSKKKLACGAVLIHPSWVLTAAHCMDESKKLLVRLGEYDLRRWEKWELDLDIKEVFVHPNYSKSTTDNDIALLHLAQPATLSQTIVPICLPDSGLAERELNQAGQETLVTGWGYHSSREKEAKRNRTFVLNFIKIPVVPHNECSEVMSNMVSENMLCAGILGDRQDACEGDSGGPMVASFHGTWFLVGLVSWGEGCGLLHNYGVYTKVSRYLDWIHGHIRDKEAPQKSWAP
# Experimental protocol: SPR
pKd: −log10 of the molar value.
The entries below come with measured pKd values attached.
Metric name: pKd

{"columns": ["Binder", "Metric name", "Recorded number"],
 "data": [
  ["TPP-26863 (antibody, V domains shown) VH: EVQLVESGGGLVQPGGSLRLSCAASGFTFSNYYMNWVRQAPGKGLEWVSYISSSSSTIYYADSVKGRFTISRDDSKNSLYLQMNSLKTEDTAVYYCAREGDYFDYWGQGTLVTVSS VL: DIVMTQSPLSLPVTPGEPASISCRSSESVDSFGATFMHWYLQKPGQSPQLLIYLASNRASGVPDRFSGSGSGTDFTLKISRVEAEDVGVYYCQQNNEDPYTFGQGTKLEIKR", "pKd", 7.95],
  ["TPP-26918 (antibody, V domains shown) VH: EVQLVESGGGLVQPGGSLRLSCAASGFTFSNYYMSWVRQAPGKGLEWVGDIRLKSNNYEKHYAESVKGRFTISRDDSKNSLYLQMNSLKTEDTAVYYCAREGDYFDYWGQGTLVTVSS VL: DIVLTQSPASLAVSPGQRATITCKASESVDSFGATFMHWYQQKPGQPPKLLIYLASNRASGVPDRFSGSGSGTDFTLKISRVEAEDVGVYYCQQNNEDPYTFGQGTKLEIKR", "pKd", 7.87],
  ["TPP-26920 (antibody, V domains shown) VH: EVQLVESGGGLVQPGGSLRLSCAASGFTFSNYYMSWVRQAPGKGLEWVGDIRLKSNNYEKHYAESVKGRFTISRDDSKNSLYLQMNSLKTEDTAVYYCAREGDYFDYWGQGTLVTVSS VL: EIVLTQSPGTLSLSPGERATLSCRASQSVSSFGATFMHWYLQKPGQSPQLLIYLASNRASGVPDRFSGSGSGTDFTLKISRVEAEDVGVYYCQQNNEDPYTFGQGTKLEIKR", "pKd", 7.55],
  ["TPP-26871 (antibody, V domains shown) VH: EVQLVESGGGLVQPGGSLRLSCAASGFTFSNYYMNWVRQAPGKGLEWVSYISSSSSTIYYADSVKGRFTISRDDSKNSLYLQMNSLKTEDTAVYYCAREGDYFDYWGQGTLVTVSS VL: DIVLTQSPASLAVSPGQRATITCKASQSVSSFGATFMHWYQQKPGQPPKLLIYLASNRASGVPDRFSGSGSGTDFTLTINPVEADDTANYYCQQNNEDPYTFGQGTKLEIKR", "pKd", 7.86],
  ["TPP-26873 (antibody, V domains shown) VH: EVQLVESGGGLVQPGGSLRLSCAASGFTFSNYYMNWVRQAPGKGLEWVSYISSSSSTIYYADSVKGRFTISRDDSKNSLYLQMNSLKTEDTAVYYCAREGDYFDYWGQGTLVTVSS VL: DIVLTQSPASLAVSPGQRATITCKASQSVSSFGATFMHWYLQKPGQSPQLLIYLASNRASGVPDRFSGSGSGTDFTLKISRVEAEDVGVYYCQQNNEDPYTFGQGTKLEIKR", "pKd", 7.95]
]}
